Tested on: KM12
Procedure details: NCI tumour cell line growth inhibition, 48 h
The source made the active and inactive calls. No stated cut-off is given here; in the data, active = GI50 up to about 1.1 µM and inactive = higher.
Outcomes: class 1 for active, class 0 for inactive

[
  {
    "Compound": "COc1cc(C2c3cc4c(cc3C(=O)C3CCC(=O)N32)OCO4)cc(OC)c1O (configuration not stated)",
    "Assigned category": "class 0"
  },
  {
    "Compound": "COc1nc(C)nc2sc3c(c12)CCCC3",
    "Assigned category": "class 0"
  },
  {
    "Compound": "[N-]=[N+]=NC1C2CC3CC(C2)CC1C3 (configuration not stated)",
    "Assigned category": "class 0"
  },
  {
    "Compound": "CC1=N/C(=C\\c2c(O)ccc3ccccc23)C(=O)O1",
    "Assigned category": "class 0"
  },
  {
    "Compound": "CC(C)C[C@H](NC(=O)[C@H](Cc1ccccc1)NC(=O)c1cnccn1)B(O)O",
    "Assigned category": "class 1"
  },
  {
    "Compound": "CCOC(=O)c1cccc(NC(=O)CBr)c1",
    "Assigned category": "class 0"
  },
  {
    "Compound": "COc1ccccc1/C(=N\\OCCC(=O)O)c1cccs1",
    "Assigned category": "class 0"
  },
  {
    "Compound": "CC(C)[C@@H]1NC(=O)[C@H]2N=C(O[C@@H]2C)[C@@H]2CCCN2C(=O)[C@H](Cc2ccccc2)NC(=O)[C@@H]2CSC(=N2)[C@@H](Cc2ccccc2)NC(=O)[C@@H]2CSC1=N2",
    "Assigned category": "class 0"
  },
  {
    "Compound": "CCOP(=O)(OCC)/C(C#N)=C(\\C)c1ccco1",
    "Assigned category": "class 0"
  },
  {
    "Compound": "Cc1ccc(/C=C/C(=O)Oc2ccc(/C=C3\\CCC/C(=C\\c4ccc(OC(=O)/C=C/c5ccc(C)cc5)cc4)C3=O)cc2)cc1",
    "Assigned category": "class 0"
  },
  {
    "Compound": "Clc1ccc(CCN(CCc2ccc(Cl)c(Cl)c2)CCN2CCCC2)cc1Cl",
    "Assigned category": "class 0"
  },
  {
    "Compound": "OCC1C2C=CC(O2)[C@H]1CO (some centres not stated)",
    "Assigned category": "class 0"
  },
  {
    "Compound": "Nc1ccc(-c2nc3ccccc3s2)cc1Cl",
    "Assigned category": "class 0"
  },
  {
    "Compound": "O=[N+]([O-])/C(C(Cl)=C(Cl)Cl)=C(/Nc1ccccc1)SCc1ccccc1",
    "Assigned category": "class 0"
  },
  {
    "Compound": "CCOC(=O)CCC(NC(=O)c1ccc(Oc2nc3ccc(C(F)(F)F)cc3nc2-c2ccccc2)cc1)C(=O)OCC (configuration not stated)",
    "Assigned category": "class 0"
  },
  {
    "Compound": "OC(Cc1cc(CC(O)(C(F)(F)F)C(F)(F)F)nc(CC(O)(C(F)(F)F)C(F)(F)F)c1)(C(F)(F)F)C(F)(F)F",
    "Assigned category": "class 1"
  },
  {
    "Compound": "CSc1nn(C)cc2nc(C)nc1-2",
    "Assigned category": "class 0"
  }
]
